Provenance of the data: ChEMBL document CHEMBL3885881

- Organism: Rattus norvegicus
- Experimental details: DrugMatrix - Regimen: Daily Repeat
- Format: toxicity, organism-based, Sprague-Dawley
- Design: regimen Daily Repeat, gender Male, age 6-8 weeks
- Test conditions: in vivo, po, 0 mg/kg, 72 h, tissue Plasma, route oral GAVAGE, dose level Control, time 3 day, vehicle 100 % WATER
Threshold check on URIC ACID: strictly below 1 mg/dL is Fulfilled; on or above 1 mg/dL is Not fulfilled.

Worked set:
Molecule	Cat
NN [HYDRAZINE]	Not fulfilled
Cc1cn([C@H]2C=C[C@@H](CO)O2)c(=O)[nH]c1=O [STAVUDINE]	Fulfilled
C1CCN2C[C@@H]3C[C@@H](CN4CCCC[C@@H]34)[C@H]2C1 [SPARTEINE]	Not fulfilled
CCN(CC)C(=S)SSC(=S)N(CC)CC	Not fulfilled
CCC1(c2ccccc2)C(=O)NC(=O)NC1=O [PHENOBARBITAL]	Fulfilled
CC(Cl)(Cl)Cl [TRICHLOROETHANE]	Not fulfilled
Cc1cc(C(C)(C)C)c(O)c(C)c1CC1=NCCN1 [OXYMETAZOLINE]	Not fulfilled

Turning now to a further record.
Hello, is URIC ACID of the following molecule strictly smaller than 1 mg/dL? C[N+](C)(C)CCOC(N)=O.[Cl-] [CARBACHOL]
Fulfilled

* * *

Listing of recorded MONOCYTE by entry.
- Species on record: Rattus norvegicus
- Experimental details: DrugMatrix - Regimen: Daily Repeat
- Type: toxicity, organism-based, Sprague-Dawley
- Design: regimen Daily Repeat, gender Male, age 6-8 weeks
- Test conditions: in vivo, po, 0 mg/kg, 72 h, tissue Blood, route oral GAVAGE, dose level Control, time 3 day, vehicle 100 % SALINE

Answered examples (4):
Compound	MONOCYTE
CC(CN1c2ccccc2Sc2ccccc21)N(C)C (stereo not given) [PROMETHAZINE]	0%
Cc1ccnc2c1NC(=O)c1cccnc1N2C1CC1 [NEVIRAPINE]	1%
O=[As][O-].[Na+] [SODIUM ARSENITE]	3%
CCN(CC)N=O [N-NITROSODIETHYLAMINE]	1%

Which MONOCYTE is reported for this compound? CCO [ALCOHOL]
3%

* * *

- Species: Rattus norvegicus
- Experimental details: DrugMatrix - Regimen: Daily Repeat
- Assay type: toxicity, organism-based, Sprague-Dawley
- Parameters: regimen Daily Repeat, gender Male, age 6-8 weeks
- Test conditions: in vivo, po, 0 mg/kg, 72 h, tissue Plasma, route oral GAVAGE, dose level Control, time 3 day, […]
Listing of recorded POTASSIUM by entry.
Expressed in MEQ/L, but write only the number.

Answered examples (4):
Molecule	Display unit	POTASSIUM
CCOC(=O)C1=C(C)NC(C)=C(C(=O)OCC)C1c1ccccc1/C=C/C(=O)OC(C)(C)C	MEQ/L	5.22
O=C(O)COC(=O)Cc1ccccc1Nc1c(Cl)cccc1Cl	MEQ/L	6.38
COC(=O)Nc1nc2ccc(C(=O)c3ccccc3)cc2[nH]1	MEQ/L	6.38
Oc1ncnc2[nH]ncc12	MEQ/L	6.1

Which POTASSIUM is reported for this molecule? COc1ccccc1OCCNCC(O)COc1cccc2[nH]c3ccccc3c12 (centres undefined)
6.38

Which POTASSIUM is reported for this molecule? Cc1cccc(C)c1NC(=O)C(C)N (centres undefined) [TOCAINIDE]
5.56

Which POTASSIUM is reported for this molecule? "CO[C@H]1O[C@@H]2O[C@@]3(C)CC[C@H]4[C@H](C)CC[C@@H]([C@H]1C)[C@@]24OO3"
6.44

Which POTASSIUM is reported for this molecule? "CC#C[C@]1(O)CC[C@H]2[C@@H]3CCC4=CC(=O)CCC4=C3[C@@H](c3ccc(N(C)C)cc3)C[C@@]21C"
5.03

Which POTASSIUM is reported for this molecule? "c1ccc2c(c1)Nc1ccccc1S2"
5.78
